Hi there, I'd appreciate the recorded fold higher biological activity than the corresponding SRR (C4) diastereomer for every entry that follows.
Target: HIV-1 protease (Human immunodeficiency virus type 1 group M subtype B, UniProt P04585)
Construct: The HIV-1 protease is composed of 99 amino acids
Experiment: In vitro HIV-1 protease assay
Format: biochemical
Settings: SRS compound vs its SRR diastereomer (4 vs 3, 6 vs 5, 17 vs 16, 13 vs 12, 19 vs 18, 23 vs 22, 21 vs 20)
Procedure: Compounds were evaluated for the ability to inhibit the enzymatic activity of HIV-1 protease in an in vitro assay. Protease activity was assessed in reactions catalyzed by purified HIV-1 protease at a concentration of 15 picomolar in buffer (50 mM sodium acetate, pH 5.5, 100 mM NaCl, 1 mg/mL bovine serum albumin) using a peptide substrate with sequence Val-Ser-Gln-Asn-(beta-naphthylalanine)-Pro-IIe-Val at a concentration of 440 micromolar in a final volume of 80 microliters. […]

Example results:
C[C@H]1Cc2cc(F)ccc2S(=O)(=O)N(C[C@@H](O)[C@H](Cc2ccccc2)NC(=O)OC(C)(C)C)C1    ~132 fold
COc1ccc2c(c1)C[C@H](C)CN(C[C@@H](O)[C@H](Cc1ccccc1)NC(=O)OC(C)(C)C)S2(=O)=O    ~57 fold
C[C@H]1Cc2cc(C(F)(F)F)ccc2S(=O)(=O)N(C[C@@H](O)[C@H](Cc2ccccc2)NC(=O)OC(C)(C)C)C1    ~18 fold

Problem: Param readout = fold higher biological activity than the corresponding SRR (C4) diastereomer; param system = HIV-1 protease (Human immunodeficiency virus type 1 group M subtype B, UniProt P04585); param query = C[C@H]1Cc2ccc(C(F)(F)F)cc2S(=O)(=O)N(C[C@@H](O)[C@H](Cc2ccccc2)NC(=O)OC(C)(C)C)C1 ; response: value
Solution: ~14 fold

Data provenance: patent US8283346B2
